# credit: paper PMC7123434

- MEASURED_ON: hP2X7 (Homo sapiens, UniProt Q99572)
- Sequence (Q99572 1-595): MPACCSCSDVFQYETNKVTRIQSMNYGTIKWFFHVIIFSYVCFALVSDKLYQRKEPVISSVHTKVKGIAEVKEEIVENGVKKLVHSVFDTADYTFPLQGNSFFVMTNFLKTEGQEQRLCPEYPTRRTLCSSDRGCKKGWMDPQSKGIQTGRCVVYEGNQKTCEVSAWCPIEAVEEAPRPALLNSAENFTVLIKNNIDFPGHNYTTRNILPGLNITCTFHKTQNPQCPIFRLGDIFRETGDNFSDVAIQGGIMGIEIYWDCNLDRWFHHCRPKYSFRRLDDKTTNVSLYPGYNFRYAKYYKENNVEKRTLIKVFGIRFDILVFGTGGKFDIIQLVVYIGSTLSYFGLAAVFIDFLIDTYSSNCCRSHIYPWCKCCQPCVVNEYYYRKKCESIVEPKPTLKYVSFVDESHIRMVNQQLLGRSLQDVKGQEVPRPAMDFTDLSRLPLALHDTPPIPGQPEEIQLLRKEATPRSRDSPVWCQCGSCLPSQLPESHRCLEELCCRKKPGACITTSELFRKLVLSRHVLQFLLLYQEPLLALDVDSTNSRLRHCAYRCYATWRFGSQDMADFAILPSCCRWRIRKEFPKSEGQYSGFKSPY
- PROTOCOL_SUMMARY: YOPRO-1 dye uptake assay on HEK293-hP2X7 cells
- MEASUREMENT_SETUP: used for fitting; Figure S1C: HEK293-hP2X7; read-out: ATP EC50
MEASURED_PROPERTY: EC50 (µM)
Dear colleague, please return just the value in µM, with no unit written.

Query: Record request: EC50 value, item Nc1ncnc2c1ncn2[C@@H]1O[C@H](COP(=O)(O)OP(=O)(O)OP(=O)(O)O)[C@@H](O)[C@H]1O [ATP]
Response: 300
